Target: EphrinB2-EphB1 (Homo sapiens)
Construct: soluble human EphB1-His, EphB2-His, and EphB4-His ectodomains; commercially available human EphrinB1-Fc (EB1), EphrinB2-Fc (EB2), and EphrinB3-Fc (EB3) ectodomain proteins; purchased
Sequence (P54762 18-540 limits assumed): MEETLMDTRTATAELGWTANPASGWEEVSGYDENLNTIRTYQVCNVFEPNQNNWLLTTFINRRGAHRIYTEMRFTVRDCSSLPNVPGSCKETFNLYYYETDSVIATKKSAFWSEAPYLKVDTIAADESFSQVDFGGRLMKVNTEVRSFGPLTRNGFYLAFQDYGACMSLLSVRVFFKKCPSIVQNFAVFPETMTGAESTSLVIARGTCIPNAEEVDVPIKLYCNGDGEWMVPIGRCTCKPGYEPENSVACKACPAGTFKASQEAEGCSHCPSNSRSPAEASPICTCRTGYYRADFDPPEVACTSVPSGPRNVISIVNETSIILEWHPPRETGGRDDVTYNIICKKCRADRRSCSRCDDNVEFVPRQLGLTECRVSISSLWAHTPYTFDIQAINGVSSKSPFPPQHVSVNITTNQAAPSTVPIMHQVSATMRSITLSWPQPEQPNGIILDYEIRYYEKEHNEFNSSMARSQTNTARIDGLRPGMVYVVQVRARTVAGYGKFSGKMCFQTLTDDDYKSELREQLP
Test: Octet, immobilized human EphrinB2 binding to 50 nM soluble human EphB1
Details: Table B, EphrinB2-EphB1; read-out: Relative AUC/IC50
measurement-label: IC50 (nM)
Answer in nM, number only, no unit symbol.

Task item: What value of measured IC50 is listed for `Oc1c(Br)cc(CN2CCN(c3ccc(Br)cc3)CC2)c2cccnc12` ?
Reply: 60

* * *

Biological target: EphA3-EphrinA1 (Homo sapiens, UniProt P29320)
Sequence (P29320 21-541 limits assumed): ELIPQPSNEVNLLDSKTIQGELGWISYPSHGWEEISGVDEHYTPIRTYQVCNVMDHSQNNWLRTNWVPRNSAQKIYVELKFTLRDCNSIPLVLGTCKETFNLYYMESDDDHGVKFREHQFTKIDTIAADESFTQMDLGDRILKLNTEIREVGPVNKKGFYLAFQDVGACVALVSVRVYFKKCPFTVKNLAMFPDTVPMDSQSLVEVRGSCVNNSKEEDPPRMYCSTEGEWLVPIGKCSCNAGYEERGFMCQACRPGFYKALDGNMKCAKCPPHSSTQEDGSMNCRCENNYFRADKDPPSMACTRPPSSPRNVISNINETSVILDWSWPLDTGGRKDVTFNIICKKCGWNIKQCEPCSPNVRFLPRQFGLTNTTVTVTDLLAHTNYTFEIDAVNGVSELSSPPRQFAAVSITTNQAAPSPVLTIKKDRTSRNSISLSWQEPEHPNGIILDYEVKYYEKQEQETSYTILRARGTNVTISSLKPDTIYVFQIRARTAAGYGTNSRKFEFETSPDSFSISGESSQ
Test: Octet, immobilized human EphA3 binding to human EphrinA1
Conditions: Human EphA3-EphrinA1; immobilized human EphA3; 50 nM soluble human EphrinA1; association; absolute; read-out: Absolute Association IC50
# key: entry, value: IC50
// return numeric value only (unit: µM, not printed)

>>> print(df.to_string())
                              line_notation  numeric_readout
0  Oc1ccc(CN2CCN(Cc3ccc(C(F)(F)F)cc3)CC2)c2cccnc12              100
1        O=S1(=O)CCN(Cc2ccc(O)c3ncccc23)CC1              100

Task item: Requested read-out: IC50. Entry: `Oc1ccc(CN2CCOCC2)c2cccnc12`
Reply: 8.24

* * *

Assay: pharmacokinetics, single IP injection
Assay type: in vivo, mouse
Conditions: mouse, brain; free base, IP 20 mg/kg; read-out: brain time of Cmax (converted)
measurement-label: Tmax

Task item: Data request, read-out Tmax, for Oc1c(Br)cc(CN2CCOCC2)c2cccnc12 [Compound 5]
Reply: 10 min

* * *

Biological target: EphrinB2-EphB4 (Homo sapiens, UniProt P54760)
Construct: soluble human EphB1-His, EphB2-His, and EphB4-His ectodomains; commercially available human EphrinB1-Fc (EB1), EphrinB2-Fc (EB2), and EphrinB3-Fc (EB3) ectodomain proteins; purchased
Sequence (P54760 16-539 limits assumed): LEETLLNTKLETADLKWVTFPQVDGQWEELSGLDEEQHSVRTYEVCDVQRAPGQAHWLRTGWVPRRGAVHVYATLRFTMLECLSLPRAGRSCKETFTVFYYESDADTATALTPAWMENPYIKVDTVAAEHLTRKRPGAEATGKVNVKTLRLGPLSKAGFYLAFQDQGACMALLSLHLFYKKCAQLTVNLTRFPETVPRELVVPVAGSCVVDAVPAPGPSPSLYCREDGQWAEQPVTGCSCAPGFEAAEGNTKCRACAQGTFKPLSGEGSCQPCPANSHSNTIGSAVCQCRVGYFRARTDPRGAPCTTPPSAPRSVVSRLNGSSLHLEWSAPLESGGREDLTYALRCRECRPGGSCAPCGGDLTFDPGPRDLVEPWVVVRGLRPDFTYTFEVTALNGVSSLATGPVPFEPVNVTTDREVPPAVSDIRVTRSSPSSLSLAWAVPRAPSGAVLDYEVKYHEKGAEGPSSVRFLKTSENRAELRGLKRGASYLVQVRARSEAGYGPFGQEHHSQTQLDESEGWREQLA
Test: Octet 80 sec association/500 sec dissociation, immobilized human EphrinB2-Fc binding to soluble human EphB4-His
Conditions: EphB4; 25 nM EphB4; 3.2 μM compound; A20-I as max control; 0* = less than 0, no inhibition; read-out: % Inhibition: Association ONLY (80 sec)
measurement-label: inhibition at 3.2 µM
Lab note: write values as number then unit, every time.

>>> print(df.to_string())
                              line_notation  result
0  COc1ccccc1N1CCN(Cc2cc(Br)c(O)c3ncccc23)CC1   15.1%
1     Oc1ccc(CN2CCN(Cc3ccccc3)CC2)c2cccnc12      0%
2  COc1ccc2[nH]cc(C(=O)N3CCN(c4ccccc4OC)CC3)c2c1      0%
3  O=[N+]([O-])c1cc(CN2CCS(=O)(=O)CC2)c2cccnc2c1O      0%
4        OCc1ccc2c(CN3CCOCC3)cc(Br)c(O)c2n1      0%
5  Oc1ccc(CN2CCN(Cc3ccc(C(F)(F)F)cc3)CC2)c2cccnc12      0%

Task item: Query inhibition at 3.2 µM on EphrinB2-EphB4 (Homo sapiens, UniProt P54760) for `COc1ccc2[nH]cc(C(=O)N3CCOCC3)c2c1`
Reply: 0%

Task item: And what about the compound `Oc1ccc(CN2CCN(Cc3ccc(Br)cc3)CC2)c2cccnc12` ?
Reply: 0%

Task item: Further, for `COc1ccccc1N1CCN(Cc2cc(I)c(O)c3ncccc23)CC1` ?
Reply: 17.5%

* * *

Assay: aqueous solubility
Format: physicochemical
Details: water or pbs, aqueous buffer; read-out: solubility in water or PBS
Procedure: FIG. 45 depicts tests of salt forms of A20 and A20-1 for aqueous solubility. Compounds were provided to the UT Southwestern PK Core facility and tested for soluble in water. While both are quite soluble, A20 salt was especially so and can be made into a […] solution, whereas A20-I salt can be dissolved into >15% solution. A study was conducted with A20 salt dissolved solely in PBS and injected at 20 mg/kg to match the previously described study of the free-base. […]
measurement-label: solubility

Task item: What value of measured solubility is listed for `Oc1c(Br)cc(CN2CCOCC2)c2cccnc12` ?
Reply: > 50 mg/mL

* * *

Target: EphB1-EphrinB2 (Rattus norvegicus)
Construct: rat EphB1-Fc residues 18-538; mouse EB2-His residues 18-232; purchased R&D Systems (EphB1-Fc); Sino Biologicals (EB2-His)
Sequence (P09759 18-538): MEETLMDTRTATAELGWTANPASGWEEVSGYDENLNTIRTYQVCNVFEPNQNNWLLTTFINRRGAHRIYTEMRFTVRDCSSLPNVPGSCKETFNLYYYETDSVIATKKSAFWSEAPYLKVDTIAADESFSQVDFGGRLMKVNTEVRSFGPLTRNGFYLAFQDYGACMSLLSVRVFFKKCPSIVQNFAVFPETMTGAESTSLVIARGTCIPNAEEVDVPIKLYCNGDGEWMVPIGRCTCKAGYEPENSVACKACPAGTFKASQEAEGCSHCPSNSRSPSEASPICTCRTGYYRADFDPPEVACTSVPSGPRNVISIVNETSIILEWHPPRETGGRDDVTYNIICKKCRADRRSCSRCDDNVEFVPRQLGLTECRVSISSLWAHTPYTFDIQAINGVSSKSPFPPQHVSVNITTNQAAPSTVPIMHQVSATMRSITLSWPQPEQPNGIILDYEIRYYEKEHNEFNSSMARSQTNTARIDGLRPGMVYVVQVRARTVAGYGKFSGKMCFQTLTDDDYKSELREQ
Assay: Octet RED384, immobilized rat EphB1-Fc binding to 30 nM mouse EB2-His (400 sec / 500 sec)
Parameters: species or system mouse EphrinB2
Settings: rEphB1-mEphrinB2; immobilized rat EphB1; 50 nM soluble mouse EphrinB2; dissociation; absolute; read-out: Absolute Dissociation IC50
measurement-label: IC50 (µM)
Express your answer in µM, writing the number without its unit.

Task item: So what does the record say about IC50 for `Oc1ccc(CN2CCOCC2)c2cccnc12` ?
Reply: 100

* * *

Test: pharmacokinetics, single IP injection
Assay type: in vivo, mouse
Conditions: mouse, plasma; free base, IP 20 mg/kg; read-out: plasma time of Cmax (converted)
measurement-label: Tmax

Task item: What measured Tmax goes with `Oc1c(Br)cc(CN2CCOCC2)c2cccnc12` ?
Reply: 10 min

* * *

Target: EphrinB2-EphB1 (Homo sapiens)
Construct: soluble human EphB1-His, EphB2-His, and EphB4-His ectodomains; commercially available human EphrinB1-Fc (EB1), EphrinB2-Fc (EB2), and EphrinB3-Fc (EB3) ectodomain proteins; purchased
Experiment: Octet 80 sec association/500 sec dissociation, immobilized human EphrinB2-Fc binding to soluble human EphB1-His
Conditions: at 3.2 μM and 80 seconds; immobilized human EphrinB2; 25 nM soluble human EphB1
Counter-ions that a name gives are not always drawn.
Using EphB1 Inhibition Percent, Inhibition of Association ONLY as the sorting value, the categories are lower band: < 20%; central band: ≥ 20% and < 30%; upper band: ≥ 30%

Use these answered entries as a reference point.
                                   compound         group
0  Oc1c(Br)cc(CN2CCOCC2)c2cccnc12 [Compound 6]    upper band
1  Oc1ccc(CN2CCN(c3ccc(Br)cc3)CC2)c2cccnc12 [Compound 26]    lower band
2  COc1ccc(N2CCN(Cc3cc(I)c(O)c4ncccc34)CC2)cc1 [Compound 74]    upper band
3  O=S1(=O)CCN(Cc2cc(Br)c(O)c3ncccc23)CC1 [Compound 17]    upper band
4  OCc1ccc2c(CN3CCOCC3)ccc(O)c2n1 [Compound 12]    lower band
5  Oc1ccc(CN2CCN(c3ccc(I)cc3)CC2)c2cccnc12 [Compound 32]  central band
6  Oc1ccc(CN2CCN(c3ccc(C(F)(F)F)cc3)CC2)c2cccnc12 [Compound 103]    lower band
7  COc1ccccc1N1CCN(Cc2cc(I)c(O)c3ncccc23)CC1 [Compound 71-A, dihydrochloride]    upper band
8  COc1ccc2[nH]cc(C(=O)N3CCN(c4ccc(Br)cc4)CC3)c2c1 [Compound 65]  central band
9  Oc1ccc(CN2CCN(C3CCCC3)CC2)c2cccnc12 [Compound 83]  central band

Task item: Which class is correct for the following compound? O=S1(=O)CCN(Cc2ccc(O)c3ncccc23)CC1 [Compound 15]
Reply: lower band

* * *

Target: EphrinB2-EphB4 (Homo sapiens)
Construct: soluble human EphB1-His, EphB2-His, and EphB4-His ectodomains; commercially available human EphrinB1-Fc (EB1), EphrinB2-Fc (EB2), and EphrinB3-Fc (EB3) ectodomain proteins; purchased
Assay: Octet 80 sec association/500 sec dissociation, immobilized human EphrinB2-Fc binding to soluble human EphB4-His
Conditions: EphB4; Association (AUC); read-out: Relative IC50
measurement-label: pIC50
API: returns pIC50 as number; meaning -log10 of concentration in mol/L.

In [3]: df
Out[3]:
                   line_notation  numeric_readout
0  Oc1c(I)cc(CN2CCOCC2)c2cccnc12             5.78

Task item: Name the recorded pIC50 for `Oc1c(Br)cc(CN2CCN(c3ccc(Br)cc3)CC2)c2cccnc12` .
Reply: 6.92
